Property: CC50 at 4 days; scope: individual molecules
- method_summary: Compound cytotoxicity, XTT-based colorimetric assay
- Assay type: cell-based
- stated_conditions: human; uninfected MT2 cells, day 4, XTT

molecule | CC50 at 4 days
Cn1nc(NS(C)(=O)=O)c2c(Cl)ccc(-n3c([C@H](Cc4cc(F)cc(F)c4)NC(=O)Cn4nc(C(F)F)c5c4C(F)(F)[C@@H]4C[C@H]54)nc4cc(OCCC(C)(C)C(F)(F)F)ccc4c3=O)c21 (atropisomer, axis not shown; (P)) | > 500 nM

Entry under test: Cn1nc(NS(C)(=O)=O)c2c(Cl)ccc(-n3c([C@H](Cc4cc(F)cc(F)c4)NC(=O)Cn4nc(C(F)F)c5c4C(F)(F)[C@@H]4C[C@H]54)nc4cc(OCCC(C)(C)C)ccc4c3=O)c21 (atropisomer, axis not shown; (P)) . Its CC50 at 4 days was > 1000 nM

Entry under test: Cn1nc(NS(C)(=O)=O)c2c(Cl)ccc(-n3c([C@H](Cc4cc(F)cc(F)c4)NC(=O)Cn4nc(C(F)F)c5c4C(F)(F)[C@@H]4C[C@H]54)nc4cc(OCc5cncnc5)ccc4c3=O)c21 (atropisomer, axis not shown; (P)) . Its CC50 at 4 days was > 1000 nM

Entry under test: Cn1nc(NS(C)(=O)=O)c2c(Cl)ccc(-n3c([C@H](Cc4cc(F)cc(F)c4)NC(=O)Cn4nc(C(F)F)c5c4C(F)(F)[C@@H]4C[C@H]54)nc4cc(OC5CCOCC5)ccc4c3=O)c21 (atropisomer, axis not shown; (P)) . Its CC50 at 4 days was > 1000 nM

* * *

- method_summary: Compound cytotoxicity, XTT-based colorimetric assay
- Assay type: cell-based
- stated_conditions: human; uninfected MT2 cells, day 4, XTT
measured_endpoint: CC50 at 4 days

compound | CC50 at 4 days
Cn1nc(NS(C)(=O)=O)c2c(Cl)ccc(-n3c([C@H](Cc4cc(F)cc(F)c4)NC(=O)Cn4nc(C(F)F)c5c4C(F)(F)[C@@H]4C[C@H]54)nc4cc(OCC5CCC5)ccc4c3=O)c21 (atropisomer, axis not shown; (P)) | > 1000 nM
Cn1nc(NS(C)(=O)=O)c2c(Cl)ccc(-n3c([C@H](Cc4cc(F)cc(F)c4)NC(=O)Cn4nc(C(F)F)c5c4C(F)(F)[C@@H]4C[C@H]54)nc4cc(OCCOC(F)F)ccc4c3=O)c21 (atropisomer, axis not shown; (P)) | > 500 nM

Entry under test: Cn1nc(NS(C)(=O)=O)c2c(Cl)ccc(-n3c([C@H](Cc4cc(F)cc(F)c4)NC(=O)Cn4nc(C(F)F)c5c4C(F)(F)[C@@H]4C[C@H]54)nc4cc(OCC5CCCCC5)ccc4c3=O)c21 (atropisomer, axis not shown; (P)) . Its CC50 at 4 days was > 1000 nM

Entry under test: Cn1nc(NS(C)(=O)=O)c2c(Cl)ccc(-n3c([C@H](Cc4cc(F)cc(F)c4)NC(=O)Cn4nc(C(F)F)c5c4C(F)(F)[C@@H]4C[C@H]54)nc4cc(OCCn5cccn5)ccc4c3=O)c21 (atropisomer, axis not shown; (P)) . Its CC50 at 4 days was > 1000 nM

Entry under test: Cn1nc(NS(C)(=O)=O)c2c(Cl)ccc(-n3c([C@H](Cc4cc(F)cc(F)c4)NC(=O)Cn4nc(C(F)F)c5c4C(F)(F)[C@@H]4C[C@H]54)nc4cc(OCCOc5ccccc5)ccc4c3=O)c21 (atropisomer, axis not shown; (P)) . Its CC50 at 4 days was > 1000 nM
